Recorded values, source patent US20230348573A1.

Catalogue of binders with associated IC50 of pseudovirus infection (luciferase)
target: spike protein of SARS-CoV-2 γ strain on pseudovirus (SARS-CoV-2 (γ strain)); test: cell-based or functional assay
QUANTITY_KIND: IC50 of pseudovirus infection (luciferase) (ng/mL)

| BINDER | VALUE_MEASURED |
| --- | --- |
| Ab847 (antibody, V domains shown) VH: EVQLVQSGAEVKKPGASVKVSCKASGYTFTSYDIIWVRQATGQGLEWMGWMDPSRGTTGYAQTFQGRVTMTRDTSISTAYLELNSLTSEDTAVYYCVAHIVVLDRWFDPWGQGTLVTVSS VL: DIVMTQSPSSLSASVGDRVTITCQASQDIGNFLNWCQQKPGQAPKVLIYGASNLETGVPSRFSGSGSGTDFTFTISSLQPEDIATYYCQHYDNFPPRFTFGQGTKLDIK | 50.2 |
| Ab159 (antibody, V domains shown) VH: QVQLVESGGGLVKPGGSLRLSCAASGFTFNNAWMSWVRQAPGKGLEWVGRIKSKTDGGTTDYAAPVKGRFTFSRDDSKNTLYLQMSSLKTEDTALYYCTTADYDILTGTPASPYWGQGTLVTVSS VL: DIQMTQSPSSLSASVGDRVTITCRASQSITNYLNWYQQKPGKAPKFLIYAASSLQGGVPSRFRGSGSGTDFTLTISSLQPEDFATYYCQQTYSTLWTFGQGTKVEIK | 3.69 |
| Ab830 (antibody, V domains shown) VH: QVQLVQSGAEVKKPGSSVKVSCKTSGGTFTNYTISWVRQAPGQGLEWMGRIIPIFDIVNYAQKFQGRVTITADKSTSTTYMELSSLRSEDTAVYYCARDGVLYDTSGYLYDAFDIWGQGTMVTVSS VL: DIQMTQSPSSLSASVGDRVTITCRASQGINNYLAWFQQKPGKAPKSLIYAASSLQSGVPPKFSGSGSGTDFTLTISSLQPEDFATYYCLHYNSYPWTFGQGTKVEIK | 1.1 |
